# Activity annotations
Target: Albumin (Homo sapiens, UniProt P02768)
Sequence (P02768 whole entry): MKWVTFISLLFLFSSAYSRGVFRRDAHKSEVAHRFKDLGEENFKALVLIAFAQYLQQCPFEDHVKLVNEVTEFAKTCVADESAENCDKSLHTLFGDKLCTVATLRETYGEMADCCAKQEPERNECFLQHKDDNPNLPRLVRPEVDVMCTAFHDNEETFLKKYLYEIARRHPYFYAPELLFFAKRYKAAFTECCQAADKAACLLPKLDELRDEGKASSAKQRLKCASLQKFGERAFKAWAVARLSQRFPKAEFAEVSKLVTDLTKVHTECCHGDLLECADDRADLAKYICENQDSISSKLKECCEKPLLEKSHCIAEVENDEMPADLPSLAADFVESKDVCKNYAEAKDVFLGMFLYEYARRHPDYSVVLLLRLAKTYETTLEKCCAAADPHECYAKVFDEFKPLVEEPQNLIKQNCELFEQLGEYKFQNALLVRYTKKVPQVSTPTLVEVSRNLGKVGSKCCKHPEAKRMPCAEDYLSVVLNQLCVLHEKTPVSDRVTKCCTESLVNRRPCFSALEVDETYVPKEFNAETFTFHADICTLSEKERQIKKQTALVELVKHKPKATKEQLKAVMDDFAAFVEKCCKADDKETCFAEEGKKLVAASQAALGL
Assay: Binding affinity to human serum albumin by HPLC analysis
Assay type: ADME
Details: isolated protein
Please state the figure in %; there is no need to write the unit.

> print(dat)
                                   molecule  recordedvalue
1  CN(C1CCN(Cc2cc3nc(-c4cnc(N)nc4)nc(N4CCOCC4)c3s2)CC1)S(C)(=O)=O           87.8
2  CN(C1CCCN(Cc2cc3nc(-c4cccc5[nH]ccc45)nc(N4CCOCC4)c3s2)C1)S(C)(=O)=O (racemic)           95.6
3  COCC(=O)N(C)C1CCN(Cc2cc3nc(-c4cnc(N)nc4)nc(N4CCOCC4)c3s2)C1 (racemic)           81.2

API: the following record is the query input.
Query: Consider the molecule shown here: `CC(=O)N(C)C1CCN(Cc2cc3nc(-c4cccc5[nH]ccc45)nc(N4CCOCC4)c3s2)CC1` What is its recorded Activity?
Response: 94.5
